Test system: M14 melanoma
Experiment summary: NCI-60 one-dose screen, 48 h (100 = growth as untreated, 0 = no growth, -100 = all killed)
Condition description: 10 µM unless noted
About 83,000 compounds went through this panel and 20% of them were active in at least one assay; those are over-represented in the sample as a whole.
# binning rule on growth: bin 0 (below 10%), bin 1 (10% to below 90%), bin 2 (90% or more)

# Compound, Measurement target, Class name
measured = [
    ("COc1cc(NC(=O)c2cccc(C3CCc4c(cc(OC)c(OC)c4OC)O3)c2)cc(OC)c1OC (stereo not given)", "M14 melanoma", "bin 1"),
    ("COC(OC)C1=C(C)OC(N)=C(C#N)C12C(=O)Nc1ccccc12 (stereo not given)", "M14 melanoma", "bin 2"),
    ("COc1ccc(C(=O)/C=C/c2cccc(Br)c2)cc1S(N)(=O)=O", "M14 melanoma", "bin 0"),
    ("O=c1cc(-c2ccccc2)oc2cc(OCCCC[P+](c3ccccc3)(c3ccccc3)c3ccccc3)cc(O)c12", "M14 melanoma", "bin 0"),
    ("COc1cc(OC)cc(-c2cc3ccc(N(C)C)cc3c(=O)[nH]2)c1", "M14 melanoma", "bin 1"),
    ("Cc1cccc(-c2nc(Nc3cccc(S(N)(=O)=O)c3)c3ccccc3n2)c1", "M14 melanoma", "bin 1"),
    ("CSc1ccc(C(=O)Nc2ccc3nnn(/C(C#N)=C/c4ccccn4)c3c2)cc1", "M14 melanoma", "bin 0"),
    ("COc1ccc2[nH]c(O)c(N=NC(=O)COc3ccc(NC(=O)Nc4ccccc4)cc3)c2c1", "M14 melanoma", "bin 1"),
    ("Cc1nc(Nc2ccccn2)sc1C(=O)CC(SCC(=O)Nc1ccc(Cl)cc1)c1ccccc1F (stereo not given)", "M14 melanoma", "bin 0"),
    ("C=CC(=O)Nc1ccc(C)c(Oc2ccc(Cl)cc2)c1", "M14 melanoma", "bin 1"),
    ("COc1ccc2oc(=O)c(C3(C)NC(=O)c4c(/C=C/C(=O)OC(C)(C)C)cccc4N3)cc2c1 (stereo not given)", "M14 melanoma", "bin 1"),
    ("CCOC(=O)C(N=Nc1ccc(S(=O)(=O)N=C(N)N)cc1)C(C)=O (stereo not given)", "M14 melanoma", "bin 2"),
]

Where do these numbers come from? They come from PubChem BioAssay (NCI).
